assay name: in vitro
experimental context: human, CC50 (50% cell cytotoxicity concentration)
Counter-ions that a name gives are not always drawn.
// boundary case: CC50 equal to 8 µM maps to false; strictly smaller maps to true

> print(dat)
                                   compound  assigned.category
1  O=C(NCCCNc1nc(Nc2cccc(NC(=O)N3CCCC3)c2)ncc1I)c1cccs1 [BX-795]              false
2  C[C@@H](c1nc(-c2ccc(C#N)cc2)cs1)[C@](O)(Cn1cncn1)c1cc(F)ccc1F [Isavucanazole]              false
3  CCCCc1oc2ccccc2c1C(=O)c1cc(I)c(OCCN(CC)CC)c(I)c1 [Amiodarone]              false
4  CC/C(=C(\c1ccccc1)c1ccc(OCCN(C)C)cc1)c1ccccc1 [Tamoxifene citrate]               true
5  CN(C)C(=O)C(CCN1CCC(O)(c2ccc(Cl)cc2)CC1)(c1ccccc1)c1ccccc1 [Loperamide HCL]              false

QUERY: Lab log: compare recorded CC50 with 8 µM; is it strictly lower for NC(=O)c1nc(F)c[nH]c1=O [Favipiravir (T-705), Favipiravir] ?
RESULT: false

QUERY: Lab log: compare recorded CC50 with 8 µM; is it strictly lower for CN(C)C/C=C/C(=O)Nc1cc2c(Nc3ccc(F)c(Cl)c3)ncnc2cc1O[C@H]1CCOC1 [Afatinib] ?
RESULT: true

====

Tested on: rLUJV/ZsG
assay name: microbe, parasite or virus in culture
Assay type: cell-based, Lujo virus
experimental context: Mammarenavirus lujoense, Huh-7; 5000 nM; read-out: Relative ZsG (%) Mean
Where a name gives a salt, the structure may show the parent alone.
// boundary case: activity at 5 µM equal to 40% maps to rule not met; strictly smaller maps to rule met

QUERY: Lab log: compare recorded activity at 5 µM with 40%; is it strictly lower for CN(C)C(=O)C(CCN1CCC(O)(c2ccc(Cl)cc2)CC1)(c1ccccc1)c1ccccc1 [Loperamide HCL] ?
RESULT: rule met

QUERY: Lab log: compare recorded activity at 5 µM with 40%; is it strictly lower for Cc1c(F)cc(C(=O)NC2CC2)cc1-c1ccc(C(=O)NCC(C)(C)C)cn1 [Losmapimod] ?
RESULT: rule not met

QUERY: Lab log: compare recorded activity at 5 µM with 40%; is it strictly lower for CC/C(=C(\c1ccccc1)c1ccc(OCCN(C)C)cc1)c1ccccc1 [Tamoxifene citrate] ?
RESULT: rule met

QUERY: Lab log: compare recorded activity at 5 µM with 40%; is it strictly lower for CN1[C@@H]2CC[C@H]1C[C@@H](OC(c1ccccc1)c1ccccc1)C2 [Benztropine mesylate] ?
RESULT: rule met

QUERY: Lab log: compare recorded activity at 5 µM with 40%; is it strictly lower for CC(C)C(=O)OC[C@@]1(N=[N+]=[N-])O[C@@H](n2ccc(N)nc2=O)[C@H](OC(=O)C(C)C)[C@@H]1OC(=O)C(C)C [Balapiravir (R1626), Balapiravir] ?
RESULT: rule not met

QUERY: Lab log: compare recorded activity at 5 µM with 40%; is it strictly lower for Nc1ncnc2c1nnn2[C@@H]1O[C@H](CO)[C@@H](O)[C@H]1O [8-azaadenosine] ?
RESULT: rule met

QUERY: Lab log: compare recorded activity at 5 µM with 40%; is it strictly lower for CC(C)OC(=O)[C@H](C)N[P@](=O)(OC[C@H]1O[C@@H](n2ccc(=O)[nH]c2=O)[C@](C)(F)[C@@H]1O)Oc1ccccc1 [PSI-7977] ?
RESULT: rule not met
